- METHOD_DESCRIPTION: Interaction with the stable free radical DPPH (reducing activity)
- REPORTED_CONDITIONS: 20 min
MEASURED_QUANTITY: RA % 100 μM 20 min
Could you kindly put the unit after your number?

Prompt: Query (compound): CC(=O)Oc1ccc(/C=C/C(=O)NNC(=S)Nc2ccccc2)cc1 [Compound 3e] ; field requested: RA % 100 μM 20 min
Completion: 83%

Prompt: Same thing, different compound: O=C(/C=C/c1ccc(OCc2ccc(Br)cc2)cc1)NNC(=S)Nc1ccccc1 [Compound 3g]
Completion: 98%

Prompt: Same thing, different compound: O=C(/C=C/c1ccc(Cl)cc1)NNC(=S)Nc1ccccc1 [Compound 3b]
Completion: 90%

Prompt: Same thing, different compound: Sc1nnc(/C=C/c2ccc3c(c2)OCO3)n1-c1ccccc1 [Compound 4f]
Completion: 87%

Prompt: Same thing, different compound: O=C(/C=C/c1ccc2c(c1)OCO2)NNC(=S)Nc1ccccc1 [Compound 3f]
Completion: 70%

Prompt: Same thing, different compound: O=C(/C=C/c1ccc(Br)cc1)NNC(=S)Nc1ccccc1 [Compound 3d]
Completion: 29%

Prompt: Same thing, different compound: Clc1ccc(/C=C/c2nnc(Nc3ccccc3)o2)cc1 [Compound 5b]
Completion: 65%

Prompt: Same thing, different compound: Sc1nnc(/C=C/c2ccccc2)n1-c1ccccc1 [Compound 4a]
Completion: 74%

Prompt: Same thing, different compound: C(=C\c1nnc(Nc2ccccc2)s1)/c1ccccc1 [Compound 6a]
Completion: 98%

* * *

Target sequence: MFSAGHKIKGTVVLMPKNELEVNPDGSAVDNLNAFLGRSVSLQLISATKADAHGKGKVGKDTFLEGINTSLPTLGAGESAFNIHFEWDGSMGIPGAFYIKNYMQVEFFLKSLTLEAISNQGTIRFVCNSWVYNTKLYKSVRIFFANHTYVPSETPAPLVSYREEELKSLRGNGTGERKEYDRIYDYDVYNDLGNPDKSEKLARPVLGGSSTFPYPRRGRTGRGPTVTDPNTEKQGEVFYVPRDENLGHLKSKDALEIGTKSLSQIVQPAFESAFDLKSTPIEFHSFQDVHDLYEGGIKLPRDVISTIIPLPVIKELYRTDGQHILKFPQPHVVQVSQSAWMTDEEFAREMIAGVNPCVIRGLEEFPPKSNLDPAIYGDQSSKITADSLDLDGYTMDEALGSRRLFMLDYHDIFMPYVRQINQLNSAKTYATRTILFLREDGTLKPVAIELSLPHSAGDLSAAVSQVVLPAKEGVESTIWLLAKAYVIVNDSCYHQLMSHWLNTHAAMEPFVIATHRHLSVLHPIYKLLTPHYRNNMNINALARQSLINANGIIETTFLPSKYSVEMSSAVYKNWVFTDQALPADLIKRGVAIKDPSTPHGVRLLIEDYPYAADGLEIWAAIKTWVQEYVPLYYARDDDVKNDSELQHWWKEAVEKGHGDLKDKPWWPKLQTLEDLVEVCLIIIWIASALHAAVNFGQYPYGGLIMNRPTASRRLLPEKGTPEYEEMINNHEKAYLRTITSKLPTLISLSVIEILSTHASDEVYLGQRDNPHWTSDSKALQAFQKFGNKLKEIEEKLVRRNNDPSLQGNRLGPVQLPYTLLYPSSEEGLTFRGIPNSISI
MEASURED_QUANTITY: IC50 (µM)
// note: answer is a bare numeric in µM

Prompt: Query (molecule): O=C(/C=C/c1ccc(Br)cc1)NNC(=S)Nc1ccccc1 ; field requested: IC50
Completion: 8

Prompt: Same thing, different molecule: O=C(/C=C/c1ccc(OCc2ccc(Br)cc2)cc1)NNC(=S)Nc1ccccc1
Completion: 10

Prompt: Same thing, different molecule: Sc1nnc(/C=C/c2ccccc2)n1-c1ccccc1
Completion: 7.5

Prompt: Same thing, different molecule: CC(=O)Oc1ccc(/C=C/C(=O)NNC(=S)Nc2ccccc2)cc1
Completion: 9.75

Prompt: Same thing, different molecule: O=C(C=Cc1ccccc1)NNC(=S)Nc1ccccc1
Completion: 8.5
